tested on: U-251; assay: NCI tumour cell line growth inhibition, 48 h
Activity calls are given as the source filed them. Cut-off read from the data, not from the text of the source: active = GI50 up to about 1.1 µM and inactive = higher.
assay-metric: GI50

Observe how each entry below is paired with its result.
compound	value
Cc1ccc(OCC2OC(n3cnc4c(N(C)C)nc(Br)nc43)CC2Oc2ccc(C)cc2)cc1 (stereo unspecified)	> 100 µM (inactive)
CC/C(SC)=[N+](\C)[O-]	> 100 µM (inactive)
C[n+]1c2ccccc2c(NC(CCCNC(=N)N)C(=O)O)c2ccccc21 (stereo unspecified)	> 100 µM (inactive)
CC(/C=C/NNC1=NN=C(c2ccccc2)C(c2ccccc2)N1)Sc1ccccc1N (stereo unspecified)	2.34 µM (inactive)
NCCCCN(CCCN)Cc1ccc2ccccc2c1	59 µM (inactive)

# input Request the reported GI50 associated with `Cn1cc(C(=O)C2CCCCC2)ccc1=O`
# output > 100 µM (inactive)

---

test system: SNB-75; assay: NCI tumour cell line growth inhibition, 48 h
The source made the active and inactive calls. Cut-off read from the data, not from the text of the source: active = GI50 up to about 1.1 µM and inactive = higher.
Catalogue of GI50 values

The cases that follow already have their GI50 on record.
compound	value
CCOC(=O)c1c(SC)nc(-c2ccc(Cl)cc2)sc1=N.[O-][Cl+3]([O-])([O-])O	25.1 µM (inactive)
O=c1oc2ccccc2cc1-c1nc2ccccc2c(=O)[nH]1	69.3 µM (inactive)
O=CC[C@H]1CCc2ccccc2C12CCC(=O)CC2	52.8 µM (inactive)

# input I'd like to know its GI50. The compound in question is `N=C(N)SCc1ccc2c(c1)Sc1ccccc1O2`
# output 5.65 µM (inactive)

# input Return reported GI50; argument: `CC/C(SC)=[N+](\C)[O-]`
# output > 67.9 µM (inactive)

# input Look up GI50: O=S1OC2(c3ccccc3-c3ccccc32)c2ccccc21 (configuration not stated)
# output > 100 µM (inactive)

# input Please report the recorded GI50 for CC(Nc1cccc(Cl)c1)c1ccncc1 (configuration not stated) .
# output > 100 µM (inactive)

# input # lookup: GI50 of C=CCn1c2c(sc1=S)C(S)NC=N2 (configuration not stated)
# output > 100 µM (inactive)

# input compound: COc1ccc(NC(C)=O)cc1C1CCC(=O)N1 (configuration not stated) ; wanted: its GI50
# output > 100 µM (inactive)

# input Please give the measured GI50 for this compound: COC(=O)C1=NN2c3ccccc3C(=O)OCCC2C1 (configuration not stated)
# output > 100 µM (inactive)

# input Value lookup for GI50; key = `N#CCCC1(CCC#N)CCCCCCC(CCC#N)(CCC#N)C(=O)C1=O`
# output > 100 µM (inactive)

# input Need GI50, item `O=C1C(c2ccccc2)=[N+]([O-])c2ccc(Cl)cc21`
# output 46.8 µM (inactive)

---

Reported GI50 values follow for various compounds
system: HOP-92; assay: NCI tumour cell line growth inhibition, 48 h
The source made the active and inactive calls. Cut-off read from the data, not from the text of the source: active = GI50 up to about 1.1 µM and inactive = higher.

Known GI50 results, listed for orientation:
compound	GI50
C[n+]1c2ccccc2c(NC(CCCNC(=N)N)C(=O)O)c2ccccc21 (stereo unspecified)	> 100 µM (inactive)
CC(=O)NNc1nc(C)c(C(/C=C/c2ccc([N+](=O)[O-])cc2)=N/NC(N)=O)s1	> 100 µM (inactive)

# input Find the measured GI50: item `O=C(CCCc1ccccn1)c1ccccc1` , target or system HOP-92.
# output > 100 µM (inactive)

# input Find the measured GI50: item `N#CCCC1(CCC#N)CCCCCCC(CCC#N)(CCC#N)C(=O)C1=O` , target or system HOP-92.
# output > 100 µM (inactive)
